MEASUREMENT TARGET: Human AMPK α2ß2γ1 (Homo sapiens, UniProt O43741+P54646)
Construct: The full length cDNAs of human AMPK ß2 (NM_005399.3) and human AMPK α2 (NM_006252.3); The full length cDNAs of human AMPK ß2 (NM_005399.3); 6xHis (N); made in house; host or cells: Escherichia coli BL21 CodonPlus (DE3)-RIL
Sequence (P54646 whole entry): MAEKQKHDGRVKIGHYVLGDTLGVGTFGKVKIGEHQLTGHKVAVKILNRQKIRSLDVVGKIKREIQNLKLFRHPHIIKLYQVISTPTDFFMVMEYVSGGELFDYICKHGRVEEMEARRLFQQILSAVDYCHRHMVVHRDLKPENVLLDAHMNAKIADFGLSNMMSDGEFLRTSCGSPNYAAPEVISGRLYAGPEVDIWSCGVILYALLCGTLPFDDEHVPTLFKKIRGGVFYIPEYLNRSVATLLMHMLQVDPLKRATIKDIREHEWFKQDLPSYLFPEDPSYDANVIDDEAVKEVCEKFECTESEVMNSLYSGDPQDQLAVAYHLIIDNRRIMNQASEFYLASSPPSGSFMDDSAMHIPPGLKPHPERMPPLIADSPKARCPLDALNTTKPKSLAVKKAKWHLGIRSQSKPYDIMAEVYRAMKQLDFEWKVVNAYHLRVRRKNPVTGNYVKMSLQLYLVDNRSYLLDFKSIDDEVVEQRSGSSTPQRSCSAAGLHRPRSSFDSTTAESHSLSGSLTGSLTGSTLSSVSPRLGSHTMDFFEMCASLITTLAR
Sequence (O43741 whole entry): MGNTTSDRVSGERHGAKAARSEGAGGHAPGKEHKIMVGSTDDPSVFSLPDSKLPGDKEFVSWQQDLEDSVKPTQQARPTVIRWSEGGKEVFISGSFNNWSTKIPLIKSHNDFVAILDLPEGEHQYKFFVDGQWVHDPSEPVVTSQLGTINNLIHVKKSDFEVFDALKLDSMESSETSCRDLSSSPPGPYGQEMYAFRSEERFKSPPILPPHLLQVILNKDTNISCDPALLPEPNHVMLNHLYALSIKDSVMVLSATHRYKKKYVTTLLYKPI
Sequence (P54619 whole entry partner): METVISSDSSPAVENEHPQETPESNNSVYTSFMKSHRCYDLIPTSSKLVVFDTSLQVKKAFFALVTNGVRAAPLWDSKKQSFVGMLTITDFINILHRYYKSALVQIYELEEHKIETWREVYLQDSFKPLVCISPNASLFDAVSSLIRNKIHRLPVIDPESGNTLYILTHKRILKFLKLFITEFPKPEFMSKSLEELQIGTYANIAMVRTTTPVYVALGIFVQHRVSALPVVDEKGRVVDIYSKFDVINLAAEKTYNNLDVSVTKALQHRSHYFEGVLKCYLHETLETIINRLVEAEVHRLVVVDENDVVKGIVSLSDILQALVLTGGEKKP
ASSAY REMARKS: Test Example 2: evaluation of an activator for AMP-activated protein kinase (AMPK), LabChip mobility shift assay with CaMKK2-phosphorylated enzyme
Assay type: biochemical
REPORTED CONDITIONS: relative to control (100%), read-out: Emax (maximum rate of increase in activity within the measurement range)
Property: Emax; scope: individual molecules
Output spec: scalar in %, unitless text.

Request: Which Emax value belongs to `COC/C=C/c1cc(F)c2c(c1)CC[C@@H]2Nc1nc2nc(O[C@@H]3CO[C@H]4[C@@H]3OC[C@H]4O)[nH]c2cc1Cl` ?
Result: 416

Request: Which Emax value belongs to O[C@@H]1CO[C@H]2[C@@H]1OC[C@H]2Oc1nc2nc(NC3CCc4cc(-c5ccccc5)cnc43)c(Cl)cc2[nH]1 (stereo partly drawn) ?
Result: 381

Request: Which Emax value belongs to O[C@@H]1CO[C@H]2[C@@H]1OC[C@H]2Oc1nc2nc(NC3CCc4cc(OCF)cc(F)c43)c(Cl)cc2[nH]1 (stereo partly drawn) ?
Result: 592

---

Property: EC150 (compound concentration showing 150% relative to the control (100%)); scope: individual molecules
MEASUREMENT TARGET: Human AMPK α2ß2γ1 (Homo sapiens, UniProt O43741+P54646)
Construct: The full length cDNAs of human AMPK ß2 (NM_005399.3) and human AMPK α2 (NM_006252.3); The full length cDNAs of human AMPK ß2 (NM_005399.3); 6xHis (N); made in house; host or cells: Escherichia coli BL21 CodonPlus (DE3)-RIL
ASSAY REMARKS: Test Example 2: evaluation of an activator for AMP-activated protein kinase (AMPK), LabChip mobility shift assay with CaMKK2-phosphorylated enzyme
Format: biochemical
REPORTED CONDITIONS: FL-Peptide 7 substrate, 25° C., 2 hours
Output spec: scalar in nM, unitless text.

1. O[C@@H]1CO[C@H]2[C@@H]1OC[C@H]2Oc1nc2nc(NC3CCc4cc(OCCOCC(F)F)cc(F)c43)c(Cl)cc2[nH]1 (stereo partly drawn)    4.5

Request: Give the reported EC150 (compound concentration showing 150% relative to the control (100%)) for Cn1cc(-c2cnc3c(c2)CCC3Nc2nc3nc(O[C@@H]4CO[C@H]5[C@@H]4OC[C@H]5O)[nH]c3cc2Cl)cn1 (stereo partly drawn) (system: Human AMPK α2ß2γ1 (Homo sapiens, UniProt O43741+P54646)).
Result: 1.6

Request: Give the reported EC150 (compound concentration showing 150% relative to the control (100%)) for OCC/C=C/c1cc(F)c2c(c1)CCC2Nc1nc2nc(O[C@@H]3CO[C@H]4[C@@H]3OC[C@H]4O)[nH]c2cc1Cl (stereo partly drawn) (system: Human AMPK α2ß2γ1 (Homo sapiens, UniProt O43741+P54646)).
Result: 3.5

Request: Give the reported EC150 (compound concentration showing 150% relative to the control (100%)) for COCC(=O)NCCOc1cc(F)c2c(c1)CCC2Nc1nc2nc(O[C@@H]3CO[C@H]4[C@@H]3OC[C@H]4O)[nH]c2cc1Cl (stereo partly drawn) (system: Human AMPK α2ß2γ1 (Homo sapiens, UniProt O43741+P54646)).
Result: 3

Request: Give the reported EC150 (compound concentration showing 150% relative to the control (100%)) for COc1ccc(-c2cc(F)c3c(c2)CCC3Nc2nc3nc(O[C@@H]4CO[C@H]5[C@@H]4OC[C@H]5O)[nH]c3cc2Cl)cn1 (stereo partly drawn) [Compound I-2-26] (system: Human AMPK α2ß2γ1 (Homo sapiens, UniProt O43741+P54646)).
Result: 7.1

Request: Give the reported EC150 (compound concentration showing 150% relative to the control (100%)) for Cn1cccc(-c2cc(F)c3c(c2)CCC3Oc2nc3nc(O[C@@H]4CO[C@H]5[C@@H]4OC[C@H]5O)[nH]c3cc2Cl)c1=O (stereo partly drawn) (system: Human AMPK α2ß2γ1 (Homo sapiens, UniProt O43741+P54646)).
Result: 3.3

---

MEASUREMENT TARGET: Human AMPK α2ß2γ1 (Homo sapiens, UniProt O43741+P54646)
Construct: The full length cDNAs of human AMPK ß2 (NM_005399.3) and human AMPK α2 (NM_006252.3); The full length cDNAs of human AMPK ß2 (NM_005399.3); 6xHis (N); made in house; host or cells: Escherichia coli BL21 CodonPlus (DE3)-RIL
ASSAY REMARKS: Test Example 2: evaluation of an activator for AMP-activated protein kinase (AMPK), LabChip mobility shift assay with CaMKK2-phosphorylated enzyme
Format: biochemical
REPORTED CONDITIONS: FL-Peptide 7 substrate, 25° C., 2 hours
Mark MET only when EC150 (compound concentration showing 150% relative to the control (100%)) stays strictly below 5 nM. Values equal to the cut-off are NOT MET.

Previously resolved entries follow.
1. CC(C)(C)OCCOc1cc(F)c2c(c1)CCC2Nc1nc2nc(O[C@@H]3CO[C@H]4[C@@H]3OC[C@H]4O)[nH]c2cc1Cl (stereo partly drawn)    NOT MET
2. CC(C)(O)C#Cc1cc(F)c2c(c1)CC[C@@H]2Nc1nc2nc(O[C@@H]3CO[C@H]4[C@@H]3OC[C@H]4O)[nH]c2cc1Cl    MET
3. Cn1ccc(-c2cc(F)c3c(c2)CCC3Oc2nc3nc(O[C@@H]4CO[C@H]5[C@@H]4OC[C@H]5O)[nH]c3cc2Cl)cc1=O (single isomer, unassigned)    MET
4. O[C@@H]1CO[C@H]2[C@@H]1OC[C@H]2Oc1nc2nc(N[C@H]3CCc4cc(/C=C/COC5CCCCO5)cc(F)c43)c(Cl)cc2[nH]1 (stereo partly drawn)    NOT MET

Request: Given the entry NC(=O)COc1cc(F)c2c(c1)CCC2Nc1nc2nc(O[C@@H]3CO[C@H]4[C@@H]3OC[C@H]4O)[nH]c2cc1Cl (stereo partly drawn) , would its reported EC150 (compound concentration showing 150% relative to the control (100%)) be below 5 nM?
Result: MET

Request: Given the entry O[C@@H]1CO[C@H]2[C@@H]1OC[C@H]2Oc1nc2nc(NC3CCc4cc(OCC5(F)COC5)cc(F)c43)c(Cl)cc2[nH]1 (stereo partly drawn) , would its reported EC150 (compound concentration showing 150% relative to the control (100%)) be below 5 nM?
Result: MET

---

Property: EC150 (compound concentration showing 150% relative to the control (100%)); scope: individual molecules
MEASUREMENT TARGET: Human AMPK α2ß2γ1 (Homo sapiens, UniProt O43741+P54646)
Construct: The full length cDNAs of human AMPK ß2 (NM_005399.3) and human AMPK α2 (NM_006252.3); The full length cDNAs of human AMPK ß2 (NM_005399.3); 6xHis (N); made in house; host or cells: Escherichia coli BL21 CodonPlus (DE3)-RIL
ASSAY REMARKS: Test Example 2: evaluation of an activator for AMP-activated protein kinase (AMPK), LabChip mobility shift assay with CaMKK2-phosphorylated enzyme
Format: biochemical
REPORTED CONDITIONS: FL-Peptide 7 substrate, 25° C., 2 hours
Kindly write the number and append the unit.

// worked examples, EC150 (compound concentration showing 150% relative to the control (100%)) included
1. O[C@@H]1CO[C@H]2[C@@H]1OC[C@H]2Oc1nc2nc(OC3CCc4cc(-c5cscn5)cc(F)c43)c(Cl)cc2[nH]1 (stereo partly drawn)    9.9 nM
2. Cn1cc(-c2cc(F)c3c(c2)CC[C@@H]3Nc2nc3nc(O[C@@H]4CO[C@H]5[C@@H]4OC[C@H]5O)[nH]c3cc2Cl)cc(F)c1=O    1.8 nM

Request: Which EC150 (compound concentration showing 150% relative to the control (100%)) value belongs to O[C@@H]1CO[C@H]2[C@@H]1OC[C@H]2Oc1nc2nc(NC3CCc4cc(O[C@H]5CCOC5)cc(F)c43)c(Cl)cc2[nH]1 (stereo partly drawn) ?
Result: 1.9 nM

---

MEASUREMENT TARGET: Human AMPK α2ß2γ1 (Homo sapiens, UniProt O43741+P54646)
Construct: The full length cDNAs of human AMPK ß2 (NM_005399.3) and human AMPK α2 (NM_006252.3); The full length cDNAs of human AMPK ß2 (NM_005399.3); 6xHis (N); made in house; host or cells: Escherichia coli BL21 CodonPlus (DE3)-RIL
ASSAY REMARKS: Test Example 2: evaluation of an activator for AMP-activated protein kinase (AMPK), LabChip mobility shift assay with CaMKK2-phosphorylated enzyme
Format: biochemical
REPORTED CONDITIONS: relative to control (100%), read-out: Emax (maximum rate of increase in activity within the measurement range)
OBSERVATION TYPE: Emax (%)
Output spec: scalar in %, unitless text.

Request: Which Emax value belongs to CC(C)OCCOc1cc(F)c2c(c1)CCC2Nc1nc2nc(O[C@@H]3CO[C@H]4[C@@H]3OC[C@H]4O)[nH]c2cc1Cl (stereo partly drawn) ?
Result: 698

Request: Which Emax value belongs to CC(C)(O)COc1cc(F)c2c(c1)CCC2Nc1nc2nc(O[C@@H]3CO[C@H]4[C@@H]3OC[C@H]4O)[nH]c2cc1Cl (stereo partly drawn) ?
Result: 633

Request: Which Emax value belongs to NC(=O)COc1cnc2c(c1)CCC2Nc1nc2nc(O[C@@H]3CO[C@H]4[C@@H]3OC[C@H]4O)[nH]c2cc1Cl (stereo partly drawn) ?
Result: 390

Request: Which Emax value belongs to O[C@@H]1CO[C@H]2[C@@H]1OC[C@H]2Oc1nc2nc(NC3CCc4cc(OCCOC5CC5)cc(F)c43)c(Cl)cc2[nH]1 (stereo partly drawn) ?
Result: 604

Request: Which Emax value belongs to Cn1nccc1-c1cc(F)c2c(c1)CCC2Oc1nc2nc(O[C@@H]3CO[C@H]4[C@@H]3OC[C@H]4O)[nH]c2cc1Cl (stereo partly drawn) ?
Result: 378

Request: Which Emax value belongs to COCC(=O)NCCOc1cc(F)c2c(c1)CCC2Nc1nc2nc(O[C@@H]3CO[C@H]4[C@@H]3OC[C@H]4O)[nH]c2cc1Cl (stereo partly drawn) ?
Result: 704

Request: Which Emax value belongs to Cn1ccc(-c2cc(F)c3c(c2)CCC3Nc2nc3nc(O[C@@H]4CO[C@H]5[C@@H]4OC[C@H]5O)[nH]c3cc2Cl)cc1=O (stereo partly drawn) ?
Result: 384

Request: Which Emax value belongs to O[C@@H]1CO[C@H]2[C@@H]1OC[C@H]2Oc1nc2nc(NC3CCc4cc(O[C@@H]5CCOC5)cc(F)c43)c(Cl)cc2[nH]1 (stereo partly drawn) ?
Result: 667
